tested_system: HLA-A*02:01 (Homo sapiens, UniProt P04439, D140Y/D185E/D98H/E176V/E277Q/G131W/G231S/I119V/I121R/I166T/I218V/L300P/L318F/N151K/N90K/P208A/P217A/Q86G/Q94H/R138H/R169H/T345S)
protocol_description: MHC binding assay: UV-ligand exchange with ELISA detection of β2m of stabilized MHC complexes
test_settings: binding to HLA-A*02:01
outcome_measure: Peptide exchange (MHC class I binding score, peptide exchange yield)

Example cases with answers are listed next.
# substance, experimental_result
data = [
    ("106 (KMPDDVWLV; listed as Homo sapiens) [compound 106]", "++++ (≥75% = ++++)"),
    ("98 (ALVDHLNVGV; listed as Homo sapiens) [compound 98]", "+++ (≥50 = +++)"),
    ("88 (TLHRETFYL; listed as Homo sapiens) [compound 88]", "++++ (≥75% = ++++)"),
    ("90 (TLVDNISTMAL; listed as Homo sapiens) [compound 90]", "+++ (≥50 = +++)"),
]

API: the following record is the query input.
Enquiry: Entry 102 (ALFARPDLLLL; listed as Homo sapiens) [compound 102] : reported Peptide exchange (MHC class I binding score, peptide exchange yield) = ?
Return: ++++ (≥75% = ++++)

Origin of measurements: patent US10597433B2
